Assay: Pharmacokinetics in rats (jugular vein cannula, plasma LC-MS)
Assay type: in vivo, Rat
Settings: female, rat, plasma, po, 10 mg/kg, female rat; 10 mg/kg as 5 mg/ml solution in 10% DMSO 20% Labrasol, 70% saline (footnote 4); read-out: FR Cmax
Quantity measured: Cmax (nM)
Please state the figure in nM; there is no need to write the unit.

Q: I would be grateful if you could share the reported Cmax for COc1nc(OC)c(NC(=O)c2ccc(Cc3cc4c(cc3C)C(C)(C)OC4(C)C)o2)c(OC)n1 [Example A1] .
Ans: 1400

###

Target: rat GnRH receptor (Rattus norvegicus, UniProt P30969)
Construct: or rat pituitaries (Pel Freez Biologicals, Rogers, Ark.) were homogenized; tissue Pel Freez Biologicals; host or cells: rat pituitaries (membrane preparation)
Sequence (P30969 whole entry): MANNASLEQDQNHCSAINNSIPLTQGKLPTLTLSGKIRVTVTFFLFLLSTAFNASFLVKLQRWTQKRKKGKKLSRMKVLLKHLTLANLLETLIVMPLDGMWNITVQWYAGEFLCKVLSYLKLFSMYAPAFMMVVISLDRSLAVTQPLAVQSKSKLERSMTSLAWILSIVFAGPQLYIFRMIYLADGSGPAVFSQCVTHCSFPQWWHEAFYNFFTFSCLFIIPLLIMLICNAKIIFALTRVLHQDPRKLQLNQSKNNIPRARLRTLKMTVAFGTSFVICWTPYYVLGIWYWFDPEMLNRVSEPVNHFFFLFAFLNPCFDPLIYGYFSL
Assay: Radioligand binding: inhibition of 125I-GnRH-A binding to rat GnRH receptor (rat pituitary membranes)
Conditions: read-out: Ki (nM), Inhibition Binding of 125I-GnRH-A to GnRH Receptors
Procedure: HEK 293 cells containing mouse or human receptors, or rat pituitaries (Pel Freez Biologicals, Rogers, Ark.) were homogenized in buffer A containing: 50 mM Tris (pH 7.4), 0.32 M sucrose, 2 mM EGTA, 1 mM PMSF, 5 μg/ml aprotinen, 5 μg/ml Pepstatin A, and 1 μg/ml leupeptin. […] Total membrane protein was determined with a BCA kit (Pierce, Rockford, Ill.). […]
# note: boundary value 8 nM maps to No; Ki below it maps to Yes

Record excerpt, results attached:
{"Compound": "COCCNc1nc(OC)c(NC(=O)c2ccc(Cc3cc4c(cc3C)C(C)(C)OC4(C)C)o2)c(OC)n1 [Example D74]", "Class": "Yes"}
{"Compound": "COc1nc(OCCO)nc(OC)c1NC(=O)c1ccc(Cc2cc3c(cc2C)C(C)(C)OC3(C)C)o1 [Example A3]", "Class": "Yes"}
{"Compound": "COc1nc(NCCCN(C)C)nc(OC)c1NC(=O)c1ccc(Cc2c(C)cc3c(c2C)C(C)(C)CCO3)o1 [Example I3]", "Class": "No"}
{"Compound": "COc1nc(NCCCN2CCOCC2)nc(OC)c1NC(=O)c1ccc(Cc2cc3c(cc2Cl)C(C)(C)CCC3(C)C)o1 [Example G1]", "Class": "Yes"}
{"Compound": "CCOCCN(CCOCC)c1nc(OC)c(NC(=O)c2ccc(Cc3cc4c(cc3C)C(C)(C)OC4(C)C)o2)c(OC)n1 [Example D49]", "Class": "No"}

Turning now to a further compound:
Q: Does this compound meet the criterion Ki < 8 nM? COc1nc(N2CCN(CCN)CC2)nc(OC)c1NC(=O)c1ccc(Cc2cc3c(cc2C)C(C)(C)OC3(C)C)o1 [Example D15]
Ans: Yes

###

Test: Pharmacokinetics in rats (jugular vein cannula, plasma LC-MS)
Assay type: in vivo, Rat
Conditions: male, rat, plasma, po, 50 mg/kg, male rat; 50 mg/kg in 50 mg/ml PG (footnote 2); read-out: Cmax
Quantity measured: Cmax (µM)
Please state the figure in µM; there is no need to write the unit.

Q: I would be grateful if you could share the reported Cmax for COc1nc(OCCO)nc(OC)c1NC(=O)c1ccc(Cc2cc3c(cc2C)C(C)(C)OC3(C)C)o1 [Example A3] .
Ans: 3.7

###

Biological target: H S A (Homo sapiens, UniProt P02768)
Sequence (P02768 25-609): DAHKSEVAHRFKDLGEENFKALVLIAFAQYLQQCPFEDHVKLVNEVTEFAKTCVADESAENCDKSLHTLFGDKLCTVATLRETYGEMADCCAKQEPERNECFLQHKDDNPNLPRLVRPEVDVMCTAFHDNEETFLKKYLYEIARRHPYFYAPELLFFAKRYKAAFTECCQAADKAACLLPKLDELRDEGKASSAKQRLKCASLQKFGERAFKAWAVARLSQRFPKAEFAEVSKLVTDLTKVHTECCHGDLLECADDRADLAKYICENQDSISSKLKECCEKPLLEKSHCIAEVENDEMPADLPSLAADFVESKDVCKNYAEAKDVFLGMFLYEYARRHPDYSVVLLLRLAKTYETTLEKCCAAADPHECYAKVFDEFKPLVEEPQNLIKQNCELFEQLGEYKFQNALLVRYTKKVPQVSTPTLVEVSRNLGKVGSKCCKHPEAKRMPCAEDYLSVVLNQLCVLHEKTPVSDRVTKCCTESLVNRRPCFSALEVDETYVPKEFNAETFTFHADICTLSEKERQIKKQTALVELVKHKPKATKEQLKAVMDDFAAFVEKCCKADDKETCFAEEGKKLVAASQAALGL
Assay: H S A column α
Format: in vitro ADME
// reported H S A column α per item
// no unit string in output, number only

Worked cases, H S A column α given:
{"Input smiles": "COc1nc(N(C)C)nc(OC)c1NC(=O)c1ccc(Cc2cc3c(cc2C)C(C)(C)OC3(C)C)o1", "H S A column α": 3}
{"Input smiles": "COc1nc(NCCCNCCCN)nc(OC)c1NC(=O)c1ccc(Cc2cc3c(cc2C)C(C)(C)OC3(C)C)o1", "H S A column α": 10}
{"Input smiles": "COc1nc(OCCO)nc(OC)c1NC(=O)c1ccc(Cc2cc3c(cc2C)C(C)(C)OC3(C)C)o1", "H S A column α": 0.4}

Q: I would be grateful if you could share the reported H S A column α for COc1nc(NCCCN(C)C)nc(OC)c1NC(=O)c1ccc(Cc2cc3c(cc2C)C(C)(C)OC3(C)C)o1 .
Ans: 2

Q: Record: COc1nc(OC)c(NC(=O)c2ccc(Cc3cc4c(cc3C)C(C)(C)CCC4(C)C)o2)c(OC)n1
Ans: 13

###

Assay: Pharmacokinetics in rats (jugular vein cannula, plasma LC-MS)
Type: in vivo, Rat
Conditions: female, rat, plasma, po, 6 mg/kg, female rat; 6 mg/kg as 3 mg/ml solution in 6% DMSO, 6% cremophor, 88% saline (footnote 6); read-out: FR Tmax hr
Quantity measured: Tmax (h)
Please state the figure in h; there is no need to write the unit.

Q: I would be grateful if you could share the reported Tmax for COc1nc(N(C)C)nc(OC)c1NC(=O)c1ccc(Cc2cc3c(cc2C)C(C)(C)CCC3(C)C)o1 .
Ans: 1

###

Experiment: Pharmacokinetics in rats (jugular vein cannula, plasma LC-MS)
Assay type: in vivo, Rat
Conditions: male, rat, plasma, oral, 50 mg/kg, male rat; male rats dosed orally at 50 mg/kg; read-out: MR Cmax
Quantity measured: Cmax (nM)
Please state the figure in nM; there is no need to write the unit.

Q: I would be grateful if you could share the reported Cmax for COc1nc(NCCN2CCCC2)nc(OC)c1NC(=O)c1ccc(Cc2cc3c(cc2C)C(C)(C)OC3(C)C)o1 [Example D5] .
Ans: 700

###

Assay: Rat plasma % remain
Assay type: in vitro ADME
Quantity measured: Rat plasma % remain (%)
Please state the figure in %; there is no need to write the unit.

Worked cases, Rat plasma % remain given:
{"Molecule": "COc1nc(Nc2ccccc2)nc(OC)c1NC(=O)c1ccc(Cc2cc3c(cc2C)C(C)(C)OC3(C)C)o1 [Example D1]", "Rat plasma % remain (%)": 100}
{"Molecule": "COc1nc(NCCCN2CCOCC2)nc(OC)c1NC(=O)c1ccc(Cc2cc3c(cc2Cl)C(C)(C)CCC3(C)C)o1", "Rat plasma % remain (%)": 92}
{"Molecule": "COc1nc(NCCCN2CCOCC2)nc(OC)c1NC(=O)c1ccc(Cc2cc3c(cc2C)C(C)(C)OC3(C)C)o1", "Rat plasma % remain (%)": 100}
{"Molecule": "CCN(CC)CCNc1nc(OC)c(NC(=O)c2ccc(Cc3cc4c(cc3C)C(C)(C)OC4(C)C)o2)c(OC)n1", "Rat plasma % remain (%)": 100}
{"Molecule": "COc1nc(N(C)C)nc(OC)c1NC(=O)c1ccc(Cc2cc3c(cc2C)C(C)(C)CCC3(C)C)o1", "Rat plasma % remain (%)": 83}

Q: I would be grateful if you could share the reported Rat plasma % remain for COc1nc(OCCO)nc(OC)c1NC(=O)c1ccc(Cc2cc3c(cc2C)C(C)(C)OC3(C)C)o1 .
Ans: 100

Q: Record: CNc1nc(OC)c(NC(=O)c2ccc(Cc3cc4c(cc3C)C(C)(C)CCC4(C)C)o2)c(OC)n1
Ans: 100

Q: Record: COc1nc(OC)c(NC(=O)c2ccc(Cc3cc4c(cc3C)C(C)(C)OC4(C)C)o2)c(OC)n1
Ans: 100

Q: Record: COc1nc(OC)c(NC(=O)c2ccc(Cc3cc4c(cc3C)C(C)(C)CCC4(C)C)o2)c(OC)n1
Ans: 100

Q: Record: COc1nc(N(C)C)nc(OC)c1NC(=O)c1ccc(Cc2cc3c(cc2C)C(C)(C)OC3(C)C)o1
Ans: 100

Q: Record: COc1nc(NCCC#N)nc(OC)c1NC(=O)c1ccc(Cc2cc3c(cc2C)CCCC3(C)C)o1
Ans: 100

Q: Record: COc1nc(NCCCN(C)C)nc(OC)c1NC(=O)c1ccc(Cc2cc3c(cc2C)C(C)(C)OC3(C)C)o1
Ans: 100

###

Assay: In vitro metabolism: disappearance of parent compound in rat liver microsomes (male, female)
Type: in vitro ADME
Details: male rat liver microsomes, 5 uM compound, 30 minutes 37° C.
# note: boundary value 50% maps to FALSE; Male Rat (MR) % rem. 30′ below it maps to TRUE

Record excerpt, results attached:
{"Molecule": "COc1nc(NCCCN(C)C)nc(OC)c1NC(=O)c1ccc(Cc2cc3c(cc2C)C(C)(C)OC3(C)C)o1", "Class": "FALSE"}
{"Molecule": "COc1nc(NCCNCCN)nc(OC)c1NC(=O)c1ccc(Cc2cc3c(cc2C)C(C)(C)OC3(C)C)o1", "Class": "FALSE"}
{"Molecule": "CNc1nc(OC)c(NC(=O)c2ccc(Cc3cc4c(cc3C)C(C)(C)CCC4(C)C)o2)c(OC)n1", "Class": "TRUE"}
{"Molecule": "COc1nc(NCCCN2CCN(CCCN)CC2)nc(OC)c1NC(=O)c1ccc(Cc2cc3c(cc2C)C(C)(C)OC3(C)C)o1", "Class": "FALSE"}
{"Molecule": "COc1nc(NCCN2CCCC2)nc(OC)c1NC(=O)c1ccc(Cc2cc3c(cc2C)C(C)(C)OC3(C)C)o1", "Class": "FALSE"}

Q: Does this molecule meet the criterion Male Rat (MR) % rem. 30′ < 50%? COc1nc(Nc2ccccc2)nc(OC)c1NC(=O)c1ccc(Cc2cc3c(cc2C)C(C)(C)OC3(C)C)o1 [Example D1]
Ans: TRUE

Q: Record: COc1nc(N(CCCN)CCCN)nc(OC)c1NC(=O)c1ccc(Cc2cc3c(cc2C)C(C)(C)OC3(C)C)o1
Ans: TRUE
